// kon lookup, one value per entry
Biological target: T1, SARS-CoV-2 spike trimer S (Wuhan, SmT1) (SARS-CoV-2 Wuhan)
T1 construct: extracellular domain
Experiment: SPR, antigen on chip
The reply should be a number in M⁻¹ s⁻¹, with the unit left off.

Observe how each entry below is paired with its result.
// query What value of kon has been reported for the following binder? NRCoV2-MRed06 VHH (VHH) VHH: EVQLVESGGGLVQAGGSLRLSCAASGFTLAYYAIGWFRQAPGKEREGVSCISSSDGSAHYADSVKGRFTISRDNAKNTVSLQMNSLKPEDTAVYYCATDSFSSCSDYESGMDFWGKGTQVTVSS
// result 185000

// query What do you have for NRCoV2-MRed19 VHH (VHH) VHH: EVQLVESGGGLVQPGGSLRLSCAASTIIFKGQTMGWFRQAPGNERELVATMTTSGSANYADSVKGRFTISRDNEKTVTLQMNSLKPEDTALYYCYMHSVYYGIDYWGKGTQVTVSS ?
// result 159000

// query What do you have for NRCoV2-MRed07 VHH (VHH) VHH: EVQLVESGGGLVQPGGSLTLSCAASGSIGPFNTMGWYRQAPGNQREPAAIITRGGVTNYADSVKGRFTISRDNAKNAVYLQMDSLKPDDTAVYYCYANYGWAIPYWGNGTQVTVSS ?
// result 1.6e+06

// query What do you have for NRCoV2-MRed22 VHH (VHH) VHH: EVQLVESGGGLVQPGGSLRLSCAASGSVFASNAMGWYRQAPGKQRELVATISSRGSTNYADSVKGRFTISRDNAKNTVYLQMNSLGPEDTAVYYCNAREFTGFDYWGQGTQVTVSS ?
// result 347000

// query What do you have for NRCoV2-MRed04 VHH (VHH) VHH: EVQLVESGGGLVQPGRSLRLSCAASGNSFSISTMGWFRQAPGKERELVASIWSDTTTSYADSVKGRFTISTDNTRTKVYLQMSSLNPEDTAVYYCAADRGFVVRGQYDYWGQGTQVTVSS ?
// result 1.39e+06

# evaluate next
// query What value of kon has been reported for the following binder? NRCoV2-MRed03 VHH (VHH) VHH: EVQLVESGGGLVQPGGSLRLSCAAIGFTLDYYAIGWFRQAPGKEREGVSCISSSDGSTYYADSVKGRFTISRDNAKNTVYLQMNSLKPEDTAVYYCATDAFATCDSWYAQIAQYDFRGQGTQVTVSS
// result 157000
